Reference source: PubChem BioAssay (NCATS)

test: Quantitative High-Throughput drug screen in 47 multiple myeloma cell lines against the NCATS MIPE library collection: OCIMY5_PLB cell viability assay (AID 1918988); conditions: OCI-MY5 myeloma viability, ATP luminescence, 48 h; series mostly up to 45.8 µM; further: nearly all actives have a fitted effect of over 65% in size
Results filed as inconclusive are left out. The source made the active and inactive calls. The call rests on the fitted dose curve; in most records, active means well fitted cell-killing curve with a large enough effect; inconclusive means small, poorly fitted or top-dose-only effect, or effect the other way; inactive means no such curve, though single readings can be large or run the other way.
Result category, one only: YES = active, NO = inactive

# compound, category_label
records = [
    ("OC[C@H]1O[C@@H](Oc2cc(O)cc(C=Cc3ccc(O)cc3)c2)[C@H](O)[C@@H](O)[C@H]1O", "YES"),
    ("CCOc1ccc(Nc2nc(-c3c(C)nc4ccccn34)cs2)cc1", "YES"),
]

-- ask Which result was noted for this compound in the test: `NC[C@@H]1O[C@@H](O[C@H]2[C@@H](O)[C@H](O[C@@H]3[C@@H](O)[C@@H](N)C[C@H](N)[C@H]3O[C@H]3O[C@H](CN)[C@@H](O)[C@@H](O)[C@H]3N)O[C@H]2CO)[C@H](N)[C@@H](O)[C@@H]1O`
-- reply NO

-- ask Entry `COc1ncc(-c2ccc3nccc(-c4ccnnc4)c3c2)cc1NS(=O)(=O)c1ccc(F)cc1F` please
-- reply YES

-- ask Same again, this time with `CC=CC[C@@H](C)C(=O)[C@H]1C(=O)N[C@@H](C(C)C)C(=O)N(C)CC(=O)N(C)[C@@H](CC(C)C)C(=O)N[C@@H](C(C)C)C(=O)N(C)[C@@H](CC(C)C)C(=O)N[C@@H](C)C(=O)N[C@H](C)C(=O)N(C)[C@@H](CC(C)C)C(=O)N(C)[C@@H](CC(C)C)C(=O)N(C)[C@@H](C(C)C)C(=O)N1C`
-- reply YES

-- ask Likewise for `Nc1ncnc2c1nc(Cl)n2[C@@H]1O[C@H](CO)[C@@H](O)[C@@H]1O` ?
-- reply YES

-- ask Follow-up entry: O=C(O)CCC1CCC(c2cc(F)ccc2F)(S(=O)(=O)c2ccc(Cl)cc2)CC1 (stereo not drawn)
-- reply NO

-- ask Also check `NC1=N[C@@]2(c3cc(NC(=O)c4ccc(F)cn4)ccc3F)COC[C@@H]2CS1`
-- reply YES

-- ask Repeat with `O=C1c2c(O)cc(O)cc2O[C@H](c2cc(O)c(O)c(O)c2)[C@H]1O`
-- reply YES

-- ask Please answer likewise for `CC1(C)CCC[C@@]2(C)[C@@H]1CC[C@@]1(C)OC(=O)C[C@H]21`
-- reply YES

-- ask Thanks! And C[C@]12CC[C@@H]3c4ccc(O)cc4C[C@@H](CCCCCCCCCS(=O)CCCC(F)(F)C(F)(F)F)[C@H]3[C@H]1CC[C@H]2O (stereo partly drawn) ?
-- reply YES

-- ask Please do the same for `CN(C[C@@H]1COCCO1)S(=O)(=O)Nc1ccc2ccc3ncc(-c4cnn(C)c4)cc3c(=O)c2c1` as well.
-- reply YES

-- ask How about `COc1ccc2c(Oc3ccc(NC(=O)c4c(C)n(CC(C)(C)O)n(-c5ccccc5)c4=O)nc3)ccnc2c1` ?
-- reply YES

---

experiment: qHTS for identification of novel therapeutic agents for treatment of microphthalmiaassociated transcription factor (MiT) renal cell carcinoma (RCC) (AID 1963991); conditions: TFE3-RCC UOK109 viability, CellTiter-Glo, 48 h; measured here: UOK109 Z-AUC; stronger effect = lower value;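 further: curves scaled with 100% = DMSO viability and 0% = empty wells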
Records with an inconclusive call do not appear.
reported_endpoint: z-score
Answers are plain numbers.

# compound, reported_endpoint, test_result
rows = [
    ("CC(=NNC(=S)N1CCC1)c1ccccn1", "z-score", -4),
    ("C[C@]12CC[C@@H]3c4ccc(O)cc4C[C@@H](CCCCCCCCCS(=O)CCCC(F)(F)C(F)(F)F)[C@H]3[C@H]1CC[C@H]2O (stereo partly drawn)", "z-score", 1.23),
    ("CCC(CC)[C@H](NC(C)=O)[C@@H]1[C@H](O)[C@@H](C(=O)O)C[C@@H]1N=C(N)N", "z-score", 0.127),
    ("CO[C@H]1C=CO[C@@]2(C)Oc3c(C)c(O)c4c(O)c(c5c(c4c3C2=O)NC2(CCN(CC(C)C)CC2)N=5)=NC(=O)C(C)=CC=C[C@H](C)[C@H](O)[C@@H](C)[C@@H](O)[C@@H](C)[C@H](OC(C)=O)[C@H]1C", "z-score", 0.267),
    ("O=c1c(-c2ccc(O)cc2)coc2cc(O)ccc12", "z-score", 0.875),
]

Hello, I would appreciate it if you could give z-score for each entry below.
1. COc1ccc2cccc(CCNC(C)=O)c2c1
2. COc1cc(N2CCC(N3CCN(C)CC3)CC2)ccc1Nc1ncc(Cl)c(Nc2ccccc2S(=O)(=O)C(C)C)n1
3. CN1[C@@H]2CCC[C@@H]1CC(NC(=O)c1nn(C)c3ccccc13)C2 (stereo partly drawn)

-- reply
0.892
-1.55
0.506
